System: CCRIS mutagenicity, Ames/micronucleus/aberration tests
Assay: CCRIS mutagenicity studies
Settings: Test System: AMES SALMONELLA TYPHIMURIUM; Strain/Indicator: TA100; Metabolic Activation: NONE; Method: PREINCUBATION
Activity calls are given as the source filed them. No rule for the calls is given here.
Give your call using only these classes: active, inactive

Asked: Which result was noted for this compound in the test: "O=C(O)/C=C/c1ccccc1[N+](=O)[O-]"
Given back: inactive

Asked: // repeat for "Nc1cnc2ccccc2c1" and report
Given back: inactive

---
Asked: Which result was noted for this compound in the test: OC1c2ccc3c(c2C2OC2C1O)-c1cccc2cccc-3c12 (stereo not given)
Given back: active

Asked: // repeat for "CN(C)c1cccc(O)c1" and report
Given back: inactive

Asked: // repeat for "Cl/C=C(\Cl)SCc1ccccc1" and report
Given back: inactive

Asked: // repeat for "CN(C)Cc1ccccc1" and report
Given back: inactive

---

Tested on: CCRIS mutagenicity, Ames/micronucleus/aberration tests
Assay: CCRIS mutagenicity studies
Details: Test System: AMES SALMONELLA TYPHIMURIUM; Strain/Indicator: TA1535; Metabolic Activation: RAT, LIVER, S-9, AROCLOR 1254 (10%); Method: PREINCUBATION
Calls of active or inactive are those of the source. No rule for the calls is given here.
Readout: mutagenic call

// worked examples, mutagenic call included
Asked: Need mutagenic call, item "C=CC(=O)O"
Given back: inactive; negative

Asked: // repeat for "Nc1cc([N+](=O)[O-])cc(S(=O)(=O)O)c1O" and report
Given back: inactive; negative

Asked: // repeat for "CC(=O)CC(=O)Nc1ccccc1" and report
Given back: inactive; negative

Asked: // repeat for CC(CCN(C)C)N(C)C (stereo not given) and report
Given back: inactive; negative

Asked: // repeat for "Cc1ccc(N)c(N)c1" and report
Given back: inactive; negative

Asked: // repeat for CCC(Cl)C(Cl)C(Cl)CC(Cl)C(Cl)C(C)Cl (stereo not given) and report
Given back: inactive; negative

Asked: // repeat for "Cc1ccc(N)c(C)c1" and report
Given back: inactive; negative

Asked: // repeat for "O=C(O)c1ccc([N+](=O)[O-])cc1" and report
Given back: inactive; negative

Asked: // repeat for "Nc1ccccc1N" and report
Given back: inactive; negative

Read the next record carefully.
Asked: Need mutagenic call, item "c1ccc2sc(SSc3nc4ccccc4s3)nc2c1"
Given back: inactive; negative

---

System: CCRIS mutagenicity, Ames/micronucleus/aberration tests
Experiment: CCRIS mutagenicity studies
Conditions: Test System: AMES SALMONELLA TYPHIMURIUM; Strain/Indicator: TA1538; Metabolic Activation: NONE; Method: STANDARD PLATE
The source made the active and inactive calls. The rule behind the calls is not given here.
Give your call using only these classes: active, inactive

Asked: Which result was noted for this molecule in the test: "Cc1c(C)c(N)c(C)c(C)c1N"
Given back: inactive

Asked: // repeat for "CN(C)CCn1cc[n+](C)c1/C=N/O" and report
Given back: inactive

Asked: // repeat for "O=c1[nH]c2ccccc2o1" and report
Given back: inactive

Asked: // repeat for "CNC(=O)Nc1ccccc1" and report
Given back: inactive

Asked: // repeat for "CO/N=C(\C(=O)N[C@@H]1C(=O)N2C(C(=O)O)=C(CSC(=O)c3ccco3)CS[C@H]12)c1csc(N)n1" and report
Given back: inactive

---
Asked: Which result was noted for this molecule in the test: "Nc1c(C(=O)O)cc([N+](=O)[O-])c2c1C(=O)c1ccccc1C2=O"
Given back: active

Asked: // repeat for "O=[Si]=O" and report
Given back: inactive

Asked: // repeat for "CC(F)(F)F" and report
Given back: inactive

Asked: // repeat for "Cc1ccccc1Cl" and report
Given back: inactive

Asked: // repeat for "O=[N+]([O-])c1ccc(-c2nc3n(c2[N+](=O)[O-])CCS3)cc1" and report
Given back: active
